System: Klebsiella pneumoniae
particulars: Concentration 32 ug.mL-1; ASSAY_TEST Inhibition of Bacterial Growth; detection method Absorption (OD600); MEDIA CAMHB; plate type 384well; NBS; CORNING #3640; time 18 hr
Description: Antibacterial activity against Klebsiella pneumoniae MDR ATCC 70063 (CO-ADD:GN_003); MIC in CAMBH media using NBS plates, by OD(600)
Potency and affinity values are given separately.
Give measured Inhibition for each item. Keep answers brief.
Numbers only, in %.

test_smiles=C=C1CC(COC)(COC)C[C@@H]1[C@@H](Nc1ccc(Br)cc1)c1ccccc1 measured_property=Inhibition experimental_value=12.17
test_smiles=C=C1CC(C(=O)OC)(C(=O)OC)C[C@@H]1[C@H](c1ccccc1)n1ccc2ccccc21 measured_property=Inhibition experimental_value=21.67
test_smiles=C[C@]12CC[C@@](c3ccc4ccccc4c3)(O1)[C@H]1C=C[C@H](OC(=O)c3ccccc3)[C@H]12 measured_property=Inhibition experimental_value=30.93
test_smiles=C[C@@H]1CC(=O)C=C2C(=O)[C@@H]3[C@@H](C3(C)C)[C@]21C measured_property=Inhibition experimental_value=18.57
test_smiles=C[C@]12CC[C@@](C)(O1)[C@H]1C=C[C@H](OC(=O)c3ccccc3)[C@H]12 measured_property=Inhibition experimental_value=15.14
test_smiles=C[C@]12CC[C@@](C3CCCC3)(O1)[C@H]1C=C[C@H](OC(=O)c3ccccc3)[C@H]12 measured_property=Inhibition experimental_value=19.59
test_smiles=C=C1CC(COCc2ccc(OC)cc2)(COCc2ccc(OC)cc2)C[C@@H]1[C@@H](Nc1ccc(Br)cc1)c1ccccc1 measured_property=Inhibition experimental_value=3.98
test_smiles=C[C@]12CC[C@@H](O1)[C@H]1C=C[C@H](OC(=O)c3ccccc3)[C@H]12 measured_property=Inhibition experimental_value=19.45

Quick batch: Inhibition for everything below.
1. C=C1CC(C(=O)OC)(C(=O)OC)C[C@@H]1[C@H](c1ccccc1)n1ccc2ccc(Cl)cc21
2. C=C1CC(C(=O)OC)(C(=O)OC)C[C@@H]1[C@@H](NS(=O)(=O)c1ccc(C)cc1)c1ccccc1

Response:
17.79
18.19

Sourced from ChEMBL document CHEMBL4513151
